Here the recorded cAMP EC50 is given for each entry.
TARGET_DESC: mouse GLP-1 receptor (mouse) (UniProt O35659)
Sequence (O35659 22-463): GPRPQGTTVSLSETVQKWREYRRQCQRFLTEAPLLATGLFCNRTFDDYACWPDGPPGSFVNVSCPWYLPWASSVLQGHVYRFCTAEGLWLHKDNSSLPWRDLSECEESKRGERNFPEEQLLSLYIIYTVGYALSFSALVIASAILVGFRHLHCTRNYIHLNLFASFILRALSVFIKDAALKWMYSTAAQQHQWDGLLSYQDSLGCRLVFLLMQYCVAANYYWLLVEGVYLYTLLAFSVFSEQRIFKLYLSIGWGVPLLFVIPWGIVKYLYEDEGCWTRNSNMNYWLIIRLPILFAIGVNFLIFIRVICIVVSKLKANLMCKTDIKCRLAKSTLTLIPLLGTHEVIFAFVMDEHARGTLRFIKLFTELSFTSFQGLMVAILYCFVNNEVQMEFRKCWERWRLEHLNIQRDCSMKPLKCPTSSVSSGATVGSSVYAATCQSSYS
METHOD: cell-based or functional assay
ENDPOINT_NAME: cAMP EC50

BINDER | VALUE_MEASURED
IP387 (Fc fusion) YSEGTFISDYSIAMDKIHQQDFVNWLLAQKGGGGGSGGGGSGGGGSGGGGSGGGGSGGGGSGGGGSGGGGSACPPC | > 1470 nM
IP337 (Fc fusion) YSEGTFISDYSIAMDKIHQQDFVNWLLAQKGGGGGSGGGGSGGGGSGGGGSGGGGSGGGGSGGGGSA | > 1150 nM
IP343 (Fc fusion) YSEGTFTSDYAAAAERQAIDAFAAWLAAAAGGGGGSGGGGSGGGGSGGGGSA | > 2070 nM
IP334 (Fc fusion) YSEGTFTSDYSIALAAAAQQDFVNWLLKGGGGGGGSGGGGSGGGGSGGGGSGGGGSGGGGSA | > 455 nM
IP338 (Fc fusion) YSEGTFISDYSIAMDKIHQQDFVNWLLAQKGGGGGSGGGGSGGGGSGGGGSGGGGSGGGGSGGGGSGGGGSAN | > 945 nM
IP315 (Fc fusion) YSEGTFISDYSSYLERQAIDEFIAWLLKGGAAAGGSGSTASSGSGSATGGGGAATHTCPPC | > 5460 nM
